Target: T1, Nrd1 307-491 D417A (Saccharomyces cerevisiae, UniProt P53617 307-491, D417A)
T1 sequence: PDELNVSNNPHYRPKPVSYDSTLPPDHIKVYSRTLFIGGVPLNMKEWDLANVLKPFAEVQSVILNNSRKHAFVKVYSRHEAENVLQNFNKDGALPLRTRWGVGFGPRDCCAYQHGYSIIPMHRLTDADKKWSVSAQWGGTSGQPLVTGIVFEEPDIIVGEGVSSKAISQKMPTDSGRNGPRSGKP
Assay: fluorescence anisotropy; FA: 10 nM RNA, 50 mM sodium phosphate pH 8, 150 mM NaCl, 10 mM beta-mercaptoethanol, 20 C (protein stock in 300 mM NaCl); NMR: same buffer with 300 mM NaCl, 20
Conditions: protein: recombinant; tags: C-terminal His6; label: 5' fluorescein or TAMRA (FA); unlabeled (NMR)
readout_label: pKd
// pKd is dimensionless: -log10 of concentration (M)

1) GUAA (ssRNA) ... 4.75

Next up:
query: Need pKd, item GCGGGGC (ssRNA)
result: 4.50
